# assay_info: Solubility in 100 mM Tris pH(8.5)/ 30% PEG 6000/200 mM NaOAc
# Type: physicochemical
metric_name: solubility (µM)

[P] COc1cc(CO[C@@H]2CC[C@@]3(C)C(C2)C[C@@H](O)[C@H]2[C@@H]4CC[C@H]([C@H](C)CCC(=O)O)[C@@]4(C)[C@@H](O)C[C@@H]23)c([N+](=O)[O-])cc1OC (some centres undefined)
[Q] C[C@H](CCC(=O)NCC(=O)O)[C@H]1CC[C@H]2[C@@H]3[C@H](O)CC4C[C@H](OCc5ccccc5[N+](=O)[O-])CC[C@]4(C)[C@H]3CC[C@]12C (some centres undefined)
[R] C[C@H](CCC(=O)O)[C@H]1CC[C@H]2[C@@H]3[C@H](O)CC4C[C@H](OCc5ccccc5[N+](=O)[O-])CC[C@]4(C)[C@H]3C[C@H](O)[C@]12C (some centres undefined)
Task item: Sort the listed compounds above so the one with the largest solubility comes first and the smallest comes last. // list labels; follow requested order
Reply: Q, R, P
(Q: 4000 µM, R: 2000 µM, P: 1000 µM)
